Data credit: ChEMBL document CHEMBL3779874

study.target: Tyrosine-protein kinase JAK2 (Homo sapiens, UniProt O60674)
Sequence (O60674 whole entry): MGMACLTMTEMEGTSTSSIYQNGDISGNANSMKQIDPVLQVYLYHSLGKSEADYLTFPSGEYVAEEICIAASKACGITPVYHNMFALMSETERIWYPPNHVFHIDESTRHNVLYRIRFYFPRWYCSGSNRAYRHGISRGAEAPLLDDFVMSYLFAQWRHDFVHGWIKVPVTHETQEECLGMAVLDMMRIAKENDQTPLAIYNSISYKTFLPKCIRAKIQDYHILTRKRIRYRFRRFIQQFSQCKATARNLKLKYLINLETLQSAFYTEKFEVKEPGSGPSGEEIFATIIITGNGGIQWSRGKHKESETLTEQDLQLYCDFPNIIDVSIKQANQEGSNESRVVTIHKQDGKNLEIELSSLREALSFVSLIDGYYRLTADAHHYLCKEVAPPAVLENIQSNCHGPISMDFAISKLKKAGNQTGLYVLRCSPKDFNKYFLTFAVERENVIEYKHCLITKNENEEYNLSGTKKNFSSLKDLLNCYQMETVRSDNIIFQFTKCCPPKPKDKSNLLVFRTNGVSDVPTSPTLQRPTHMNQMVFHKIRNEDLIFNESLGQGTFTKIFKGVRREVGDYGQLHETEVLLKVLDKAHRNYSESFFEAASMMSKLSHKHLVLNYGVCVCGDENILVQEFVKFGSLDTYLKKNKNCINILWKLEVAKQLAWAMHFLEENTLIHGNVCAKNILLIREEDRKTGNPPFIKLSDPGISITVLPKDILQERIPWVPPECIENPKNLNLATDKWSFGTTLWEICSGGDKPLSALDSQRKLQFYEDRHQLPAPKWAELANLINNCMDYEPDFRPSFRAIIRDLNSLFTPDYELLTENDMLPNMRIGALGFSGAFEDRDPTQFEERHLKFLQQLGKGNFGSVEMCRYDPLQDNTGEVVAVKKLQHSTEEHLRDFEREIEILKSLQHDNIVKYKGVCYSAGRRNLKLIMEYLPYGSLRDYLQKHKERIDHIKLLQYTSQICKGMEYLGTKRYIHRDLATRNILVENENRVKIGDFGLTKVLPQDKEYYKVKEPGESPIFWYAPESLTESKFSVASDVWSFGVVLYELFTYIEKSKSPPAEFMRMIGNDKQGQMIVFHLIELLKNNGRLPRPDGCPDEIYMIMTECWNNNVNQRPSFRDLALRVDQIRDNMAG
pKi: −log10 of the molar value.
quantity.name: pKi

1. COc1ccccc1Nc1cc[nH]c(=O)c1C(=O)Nc1ccc(N2CCN(C)CC2)cc1 8.05

---

Below are compounds with their Ki as measured on Epidermal growth factor receptor (Homo sapiens).
Sequence (P00533 whole entry): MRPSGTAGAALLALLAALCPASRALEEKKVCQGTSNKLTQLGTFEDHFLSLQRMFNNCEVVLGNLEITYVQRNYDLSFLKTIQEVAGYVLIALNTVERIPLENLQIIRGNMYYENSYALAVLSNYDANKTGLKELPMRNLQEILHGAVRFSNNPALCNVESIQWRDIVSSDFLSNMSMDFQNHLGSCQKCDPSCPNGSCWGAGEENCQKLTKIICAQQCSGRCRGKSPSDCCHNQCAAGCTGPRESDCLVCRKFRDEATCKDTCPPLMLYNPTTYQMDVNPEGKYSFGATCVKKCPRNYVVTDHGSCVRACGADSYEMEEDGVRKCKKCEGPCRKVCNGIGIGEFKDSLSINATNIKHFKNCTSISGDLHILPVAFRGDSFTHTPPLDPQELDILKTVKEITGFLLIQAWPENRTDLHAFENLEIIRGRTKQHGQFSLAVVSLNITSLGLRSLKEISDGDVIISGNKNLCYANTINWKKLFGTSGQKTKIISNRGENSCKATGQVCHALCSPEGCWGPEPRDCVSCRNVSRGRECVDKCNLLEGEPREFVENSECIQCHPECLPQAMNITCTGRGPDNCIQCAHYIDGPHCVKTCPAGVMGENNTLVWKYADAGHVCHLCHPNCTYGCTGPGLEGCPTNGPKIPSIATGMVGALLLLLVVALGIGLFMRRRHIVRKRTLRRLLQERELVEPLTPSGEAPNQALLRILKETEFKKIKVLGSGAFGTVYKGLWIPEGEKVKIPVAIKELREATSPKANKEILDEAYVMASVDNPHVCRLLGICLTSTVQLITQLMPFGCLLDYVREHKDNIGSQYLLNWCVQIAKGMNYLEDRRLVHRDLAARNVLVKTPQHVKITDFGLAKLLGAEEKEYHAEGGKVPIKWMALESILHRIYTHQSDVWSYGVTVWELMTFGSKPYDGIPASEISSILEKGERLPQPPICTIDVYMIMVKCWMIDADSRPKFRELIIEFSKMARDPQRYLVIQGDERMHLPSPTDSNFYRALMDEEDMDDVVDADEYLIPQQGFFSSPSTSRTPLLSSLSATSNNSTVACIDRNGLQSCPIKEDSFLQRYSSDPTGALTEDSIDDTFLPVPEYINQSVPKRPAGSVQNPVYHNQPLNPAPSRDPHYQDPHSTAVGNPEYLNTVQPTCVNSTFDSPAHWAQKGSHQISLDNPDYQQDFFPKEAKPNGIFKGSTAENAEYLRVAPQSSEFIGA
quantity.name: Ki (nM)

1) CN1CCN(c2ccc(NC(=O)c3c(NCCc4ccccc4)cc[nH]c3=O)cc2)CC1 49
2) CN(C)c1ccc(NC(=O)c2c(NCCc3cccc(Cl)c3)cc[nH]c2=O)cc1 757
3) COc1ccccc1Nc1cc[nH]c(=O)c1C(=O)Nc1ccc(C2CCN(C)CC2)cc1 634
4) CN1CCN(c2ccc(NC(=O)c3c(Nc4ccnc(N)n4)cc[nH]c3=O)cc2)CC1 850
5) Cc1ccccc1Nc1cc[nH]c(=O)c1C(=O)Nc1ccc(N2CCN(C)CC2)cc1 2340
6) CN1CCN(c2ccc(NC(=O)c3c(Nc4ccccc4Cl)cc[nH]c3=O)cc2)CC1 1480
